- system: Met (phospho-Met, HGF-stimulated PC-3 prostate cancer cells) (Homo sapiens (Human))
- Sequence (P08581 25-1390): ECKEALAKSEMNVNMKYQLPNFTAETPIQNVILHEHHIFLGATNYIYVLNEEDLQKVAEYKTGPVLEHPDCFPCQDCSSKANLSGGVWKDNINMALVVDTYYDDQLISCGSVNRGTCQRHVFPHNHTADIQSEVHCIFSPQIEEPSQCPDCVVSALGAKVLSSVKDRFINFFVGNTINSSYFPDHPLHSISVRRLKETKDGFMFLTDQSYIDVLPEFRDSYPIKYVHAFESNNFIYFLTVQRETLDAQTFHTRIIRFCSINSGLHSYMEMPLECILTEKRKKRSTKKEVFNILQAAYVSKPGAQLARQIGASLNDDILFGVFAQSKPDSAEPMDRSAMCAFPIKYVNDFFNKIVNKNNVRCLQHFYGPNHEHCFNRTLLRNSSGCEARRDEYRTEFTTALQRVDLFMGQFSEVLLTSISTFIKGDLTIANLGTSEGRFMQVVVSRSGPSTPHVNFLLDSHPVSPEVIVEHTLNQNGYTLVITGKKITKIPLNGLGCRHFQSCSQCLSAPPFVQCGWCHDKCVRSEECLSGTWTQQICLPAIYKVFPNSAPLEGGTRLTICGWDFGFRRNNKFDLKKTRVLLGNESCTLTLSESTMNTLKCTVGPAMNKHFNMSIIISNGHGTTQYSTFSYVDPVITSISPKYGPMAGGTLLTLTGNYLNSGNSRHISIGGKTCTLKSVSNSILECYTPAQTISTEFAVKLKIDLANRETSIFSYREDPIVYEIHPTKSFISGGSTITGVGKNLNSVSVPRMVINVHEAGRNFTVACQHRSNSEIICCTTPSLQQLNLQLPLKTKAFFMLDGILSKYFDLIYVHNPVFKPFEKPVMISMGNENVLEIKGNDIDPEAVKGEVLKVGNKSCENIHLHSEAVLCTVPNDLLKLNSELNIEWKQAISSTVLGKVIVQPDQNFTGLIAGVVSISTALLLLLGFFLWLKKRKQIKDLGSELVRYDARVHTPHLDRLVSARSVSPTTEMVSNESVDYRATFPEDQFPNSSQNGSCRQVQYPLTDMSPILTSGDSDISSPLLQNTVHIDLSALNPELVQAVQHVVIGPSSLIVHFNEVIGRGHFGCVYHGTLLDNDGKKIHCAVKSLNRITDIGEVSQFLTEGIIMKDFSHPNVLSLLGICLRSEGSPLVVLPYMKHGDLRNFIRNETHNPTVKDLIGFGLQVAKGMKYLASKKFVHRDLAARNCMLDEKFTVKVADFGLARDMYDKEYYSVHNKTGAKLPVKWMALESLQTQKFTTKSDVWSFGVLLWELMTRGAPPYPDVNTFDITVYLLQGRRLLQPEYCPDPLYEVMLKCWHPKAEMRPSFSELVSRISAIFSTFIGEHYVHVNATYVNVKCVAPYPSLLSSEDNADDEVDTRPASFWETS
- test.summary: Met autophosphorylation ELISA in PC-3 cells (Example F)
- Assay type: cell-based
- condition.summary: cellular activity; Met autophosphorylation ELISA in PC-3 cells; read-out: c-Met IC50
Listed here are molecules together with their documented IC50.

Below, each entry is followed by its recorded IC50 result.
{"molecule": "COc1cc2nccc(Oc3ccc(NC(=O)c4cc(Br)c(C)n(-c5ccc(F)cc5)c4=O)cc3F)c2nc1OC [Compound 366]", "readout.label": "IC50", "experimental.result": "< 100 nM"}
{"molecule": "COc1cc(NC(=O)c2cn(C)c(C)c(-c3ccc(F)cc3)c2=O)ccc1Oc1ccnc2cc(OC)c(OC)nc12 [Compound 762]", "readout.label": "IC50", "experimental.result": "< 100 nM"}
{"molecule": "CCOc1c(C(=O)Nc2ccc(Oc3ccnc4cc(OC)c(OC)cc34)c(F)c2)nnc(C)c1-c1ccc(F)cc1 [Compound 572]", "readout.label": "IC50", "experimental.result": "< 100 nM"}
{"molecule": "COc1cnc2c(Oc3ccc(NC(=O)c4c(C)ncn(-c5ccc(F)cc5)c4=O)cc3F)ccnc2c1 [Compound 256]", "readout.label": "IC50", "experimental.result": "100 to 300 nM"}
{"molecule": "Cc1ccc(C(=O)Nc2ccc(Oc3ccnc4cc(OCc5ccccc5)cnc34)c(F)c2)c(=O)n1-c1ccc(F)cc1 [Compound 275]", "readout.label": "IC50", "experimental.result": "< 100 nM"}
{"molecule": "COc1cc2nccc(Oc3ccc(NC(=O)c4cnc(C)c(-c5ccc(F)cc5)c4O)cc3)c2cc1OC [Compound 171]", "readout.label": "IC50", "experimental.result": "< 100 nM"}

Here's the next entry for you.
Incoming: State the recorded IC50 for this entry: COc1cc2nccc(Oc3ccc(NC(=O)c4nnc(C)c(-c5ccc(F)cc5)c4OC(C)C)cc3F)c2cc1OC [Compound 574]
Outgoing: < 100 nM
